EXPERIMENTAL TARGET: T1, Recombinant human FcγRI/CD64, extracellular domain, glycosylated (human, UniProt P12314 16-292)
T1 construct: extracellular domain; also called FcγRIa; FcγRIa-FITC
T1 sequence (P12314 16-292): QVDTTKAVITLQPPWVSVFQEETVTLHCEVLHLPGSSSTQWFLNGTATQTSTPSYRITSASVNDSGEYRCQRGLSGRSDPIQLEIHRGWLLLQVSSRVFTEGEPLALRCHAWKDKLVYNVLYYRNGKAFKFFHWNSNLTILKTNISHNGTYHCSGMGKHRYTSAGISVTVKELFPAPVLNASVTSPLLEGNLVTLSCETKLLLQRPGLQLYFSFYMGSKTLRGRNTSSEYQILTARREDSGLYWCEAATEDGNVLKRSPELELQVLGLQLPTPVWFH
EXPERIMENT DESCRIPTION: flow cytometry of spheroplasts displaying the Fc clone, labelled with FcγRIa-FITC; the value is repeated on D00019 and D00020
MEASUREMENT KIND: FACS mean value
Answer with a number only.

These recorded examples may help you get a feel for the data.
Fc147 (other) Fc chain: DKTHTCPPRPAPELLGGPSVFLFPPKPKDTLMISRTPEVTCVVVDVSHEDPEVKFNWYVDGVEVHNAKTKPREEQYNSTYRVVSVLTVLHQDWLNGKEYKCKVSNKALPAPIEKTISKAKGQPREPQVYTLPPSRDELTKNQVSLTCLVKGFYPSDIAVEWVSNGQPENNYKTTPPVLDSDGSFFLYSKLTVDKSRWQQGNVFSCSVIHEALHNHYTQKSLSLSPGK :: 464
Fc102 (other) Fc chain: DKTHTCPPCPAPELLGGPSVFLFPPKPKDTLMISRTPEVTCVVVDVSHEDPEVKFNWYVDGVEVHNAKTKPREEQYNSTYRVVSVLTVLHQDWLNGKEYKCKVSNKALPAPIEKTISKAKGQPREPQVYTLPPSRDELTKDQVSLTCLVKGFYPSDIAVEWVSNGQPENNYKTTPPVLDSDGSFFLYSKLTVDKSRWQQGNVFSCSVIHEALHNHYTQKSLSLSPGK :: 374
Fc114 (N361S, E382V, M428I), aglycosylated Fc mutant (other) DKTHTCPPCPAPELLGGPSVFLFPPKPKDTLMISRTPEVTCVVVDVSHEDPEVKFNWYVDGVEVHNAKTKPREEQYNSTYRVVSVLTVLHQDWLNGKEYKCKVSNKALPAPIEKTISKAKGQPREPQVYTLPPSRDELTKSQVSLTCLVKGFYPSDIAVEWVSNGQPENNYKTTPPVLDSDGSFFLYSKLTVDKSRWQQGNVFSCSVIHEALHNHYTQKSLSLSPGK :: 370
Fc149 (E380D, E382V, N384R, S426V, M428L, E430D), aglycosylated Fc mutant (other) DKTHTCPPCPAPELLGGPSVFLFPPKPKDTLMISRTPEVTCVVVDVSHEDPEVKFNWYVDGVEVHNAKTKPREEQYNSTYRVVSVLTVLHQDWLNGKEYKCKVSNKALPAPIEKTISKAKGQPREPQVYTLPPSRDELTKNQVSLTCLVKGFYPSDIAVDWVSRGQPENNYKTTPPVLDSDGSFFLYSKLTVDKSRWQQGNVFSCVVLHDALHNHYTQKSLSLSPGK :: 140

Query: GET /values?readout=FACS mean value&item= Fc106 (E382T, N384D, M428I), aglycosylated Fc mutant (other) DKTHTCPPCPAPELLGGPSVFLFPPKPKDTLMISRTPEVTCVVVDVSHEDPEVKFNWYVDGVEVHNAKTKPREEQYNSTYRVVSVLTVLHQDWLNGKEYKCKVSNKALPAPIEKTISKAKGQPREPQVYTLPPSRDELTKNQVSLTCLVKGFYPSDIAVEWTSDGQPENNYKTTPPVLDSDGSFFLYSKLTVDKSRWQQGNVFSCSVIHEALHNHYTQKSLSLSPGK
Response: 269

Query: GET /values?readout=FACS mean value&item= Fc151 (E382V, S426I, M428L, E430S), aglycosylated Fc mutant (other) DKTHTCPPCPAPELLGGPSVFLFPPKPKDTLMISRTPEVTCVVVDVSHEDPEVKFNWYVDGVEVHNAKTKPREEQYNSTYRVVSVLTVLHQDWLNGKEYKCKVSNKALPAPIEKTISKAKGQPREPQVYTLPPSRDELTKNQVSLTCLVKGFYPSDIAVEWVSNGQPENNYKTTPPVLDSDGSFFLYSKLTVDKSRWQQGNVFSCIVLHSALHNHYTQKSLSLSPGK
Response: 326
